targetOfAssay: P.1 Spike (SARS-CoV2)
endpointLabel: Response
One number for each entry.

Ab_26 scFv-Fc (scFv, V domains shown) VH: QVQLVQSGGGLVQPGRSLRLSCAASGFTFDDYAMHWVRQVPGKGLEWVSGIDWNSGVIGYADSVKGRFTISRDNAKNSLYLQMNSLRAEDTALYYCAKDAYSYGFLGAFDIWGQGTMVTVSS VL: LPVLTQPPSVSVAPGQTASITCGGDNIRTKGVHWYQQKPGQAPLLVIYYASDRPSGIPERFSGSSSGNTATLTISRVEAGDEADYYCQVWDSSSDLVVFGGGTTLTVL    0.188
Ab_27 scFv-Fc (scFv, V domains shown) VH: QVQLVQSGTEVKKPGASVKVSCKASGYSFTGSHLHWVRQAPGQGLEWMGWINPDSGVINYAQKFQGRVTLTRDTSISTAYMELSGLRSDDTAVYYCARDKAIGYVWALDYWGQGTLVTVSS VL: QSALTQPPSVSGSPGQSVTISCTGTSSDVGTYNRVSWYQQPPGKAPKLMIYEVSNRPSGVSNRFSGSKSGNTASLTISGLQAEDEADYYCSSYTRTFTYVFGTGTKVTVL    0.0795

Lab note: next binder to report on.
Ask: # lookup: Response of S1-R3-T1-C4 (Ab_8) scFv-Fc (scFv, V domains shown) VH: QVQLVQSGAEVKKPGSSVKVSCKASGGTFSSYAISWLRQAPGQGLEWMGWINPNSGGTNYAQKFQGRVTMTRDTSISTAYMELSRLRSDDTAVYYCARGSGGYYLGWGQGTLVTVSS VL: QPGLTQPPSVSKGLRQTATLTCTGNSNNVGNQGAAWLQQHQGHPPKLLSYMNNNRPPGISERFSASRSGNTASLTITGLQPEDEADYYCSAWDSSLSRWVFGGGTKLSVL
Result: 0.0784

Where do these numbers come from? They come from patent US20240409617A1.
